- Tested on: U2OS
- assay_notes: Multiplex assay against U2OS
- Assay type: toxicity, cell-based
- condition_label: human, 12 h, 1 µM, compound concentration 1 uM, replicate 1
Use met when the recorded Population Fragmented Nuclei (%) is no lower than 30%; use not met when it is lower.

>  <molecule>
COc1cc(OC2CCN(C(C)=O)CC2)ccc1C(=O)N1CCC(N2C(=O)OCc3ccccc32)CC1

>  <category>
not met

$$$$
>  <molecule>
CCc1nn2c(C)cc(C)nc2c1Cc1ccc(-c2nnc(C3CCNCC3)o2)cc1

>  <category>
not met

$$$$
>  <molecule>
Nc1nc(-c2ccco2)c2cnn(Cc3ccccc3F)c2n1

>  <category>
not met

$$$$

Threshold query (Population Fragmented Nuclei (%) >= 30%) on Cn1cc(C(=O)OCC2CCN(CCNS(C)(=O)=O)CC2)c2ccccc21
not met

Check if Population Fragmented Nuclei (%) >= 30% (inclusive). Item: CN1CCN2c3ccccc3Cc3ccccc3C2C1.Cl (stereo not given) [MIANSERIN HYDROCHLORIDE]
met

Is Population Fragmented Nuclei (%) at least 30%? Consider Cc1ccc(OCC(O)C(C)NC(C)C)c2c1CCC2.Cl (stereo not given)
not met

Could you please find out whether COc1ccc2c(c1OCc1ccccc1)C[C@@H](C(=O)O)N(C(=O)C(c1ccccc1)c1ccccc1)C2 [OLODANRIGAN] has Population Fragmented Nuclei (%) that meets 30% or exceeds it?
met

Dear colleague, could you confirm whether CCCCC[C@H](O)/C=C/[C@H]1[C@H](O)CC(=O)[C@@H]1CCCCCCC(=O)O [ALPROSTADIL] has Population Fragmented Nuclei (%) at or above 30%?
met

Hello, I need to know if CN(C)C/C=C/C(=O)Nc1ccc(C(=O)N2CCCC(Nc3ncc(Cl)c(-c4c[nH]c5ccccc45)n3)C2)cc1 (stereo not given) has measured Population Fragmented Nuclei (%) not below 30%. Thanks!
met

Form field: Population Fragmented Nuclei (%) at least 30%? Entry: O=c1ccc2ccc(OCCCCN3CCN(c4cccc5sccc45)CC3)cc2[nH]1 [BREXPIPRAZOLE]
not met

In plain terms: is recorded Population Fragmented Nuclei (%) at least 30% for Cc1c(Cc2ccc3ccccc3n2)c2cc(F)ccc2n1CC(=O)O [TIMAPIPRANT] ?
not met

Determine whether measured Population Fragmented Nuclei (%) meets or exceeds 30% for O=c1nc2[nH]c3ccccc3nc-2c(=O)[nH]1 [ALLOXAZINE]
not met

Hello, I need to know if CN(C)C(=O)Cn1cc(-c2ccc(-c3nnc4ccccn34)cc2)cn1 has measured Population Fragmented Nuclei (%) not below 30%. Thanks!
not met

Form field: Population Fragmented Nuclei (%) at least 30%? Entry: CSc1nc(NC2CCCC2)c([N+](=O)[O-])c(NC2CCCC2)n1 [GS-39783]
not met
